Taken from patent US9822147B2.

- tested_system: NPR-B (Homo sapiens)
- Construct: a functional assay using endogenously NPR-B expressing GTM-3 cells; endogenous in cells; host or cells: GTM-3 (human glaucoma trabecular meshwork cells)
- Sequence (P20594 23-1047): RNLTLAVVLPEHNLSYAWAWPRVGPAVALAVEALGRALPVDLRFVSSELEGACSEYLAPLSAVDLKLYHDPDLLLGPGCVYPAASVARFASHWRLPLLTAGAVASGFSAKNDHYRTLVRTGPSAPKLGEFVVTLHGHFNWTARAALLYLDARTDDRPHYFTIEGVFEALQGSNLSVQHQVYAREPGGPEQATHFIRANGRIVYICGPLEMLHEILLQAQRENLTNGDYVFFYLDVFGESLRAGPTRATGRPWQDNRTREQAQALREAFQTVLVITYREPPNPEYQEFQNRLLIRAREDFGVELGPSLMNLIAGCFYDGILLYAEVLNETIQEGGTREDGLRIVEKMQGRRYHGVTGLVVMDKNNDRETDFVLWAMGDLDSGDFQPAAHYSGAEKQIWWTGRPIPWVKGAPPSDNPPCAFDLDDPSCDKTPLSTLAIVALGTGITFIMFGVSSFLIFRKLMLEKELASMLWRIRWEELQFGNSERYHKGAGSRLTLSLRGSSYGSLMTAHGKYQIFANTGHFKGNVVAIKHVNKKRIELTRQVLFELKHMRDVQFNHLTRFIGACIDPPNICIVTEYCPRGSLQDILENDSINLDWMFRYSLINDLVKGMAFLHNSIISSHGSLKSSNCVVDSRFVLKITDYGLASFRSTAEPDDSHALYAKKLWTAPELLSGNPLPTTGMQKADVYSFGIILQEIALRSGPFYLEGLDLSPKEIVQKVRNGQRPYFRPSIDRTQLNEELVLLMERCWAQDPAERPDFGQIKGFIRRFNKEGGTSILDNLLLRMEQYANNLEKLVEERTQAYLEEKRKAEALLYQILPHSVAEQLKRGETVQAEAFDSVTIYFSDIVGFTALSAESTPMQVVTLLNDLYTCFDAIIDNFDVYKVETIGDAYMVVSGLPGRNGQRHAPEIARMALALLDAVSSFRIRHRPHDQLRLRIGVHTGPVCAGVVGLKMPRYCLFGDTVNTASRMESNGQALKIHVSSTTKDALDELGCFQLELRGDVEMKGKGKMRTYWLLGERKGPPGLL
- assay_comment: NPR-B induced production of cyclic GMP in human glaucoma trabecular meshwork cells (GTM-3)
- Assay type: cell-based
- reported_conditions: group by EC50 and Emax (CNP = 100%); Table 4; read-out: Activity (group), NPR-B activation assayed with GTM-3 cells
Peptide text beside a SMILES is read from it.
observation_type: EC50

The recorded EC50 for entry CC[C@H](C)[C@H](NC(=O)[C@H](CCCNC(=N)N)NC(=O)[C@H](CC(=O)O)NC(=O)[C@H](CC(C)C)N(C)C(=O)[C@@H]1C[C@@H](O)CN1C(=O)[C@H](CC(C)C)NC(=O)[C@@H](CC(C)C)NC(=O)[C@H](Cc1ccccc1)NC(=O)[C@H]1CCCN(C(=O)CCCc2ccccc2)C1)C(N)=O [JAL-1605] (HELM PEPTIDE1{[O=C(CCCc1ccccc1)[*:2]].[O=C([C@H]1CCCN([*:1])C1)[*:2]].F.[dL].L.[Hyp].[meL].D.R.I.[am]}$$$$V2.0) equals < 1 µM
